# Experimental target: Estrogen receptor beta (Homo sapiens)
# Procedure summary: Displacement of [3H]estradiol from full-length human estrogen receptor beta by radiometric assay relative to estradiol
Attribute measured: RBA (%)
Record the value in %, omitting the unit from your answer.

Query string: Name the reported RBA value associated with the compound "C[C@]12CC[C@@H]3c4ccc(O)cc4CC[C@H]3[C@@H]1CC[C@@]2(O)C#Cc1ccc(OCCOCCOCCOCCOCCOCCOc2ccc(C#C[C@]3(O)CC[C@H]4[C@@H]5CCc6cc(O)ccc6[C@H]5CC[C@@]43C)cc2)cc1"
Result string: 0.68

Query string: Param item = "C[C@]12CC[C@@H]3c4ccc(O)cc4CC[C@H]3[C@@H]1CC[C@@]2(O)C#Cc1ccc(OCCCOCCCOCCCOCCCOCCCOc2ccc(C#C[C@]3(O)CC[C@H]4[C@@H]5CCc6cc(O)ccc6[C@H]5CC[C@@]43C)cc2)cc1" ; retrieve measured RBA.
Result string: 0.69

Query string: Bench note: what RBA did "C[C@]12CC[C@@H]3c4ccc(O)cc4CC[C@H]3[C@@H]1CC[C@@]2(O)C#Cc1ccc(OCCCCOCCCCOCCCCOc2ccc(C#C[C@]3(O)CC[C@H]4[C@@H]5CCc6cc(O)ccc6[C@H]5CC[C@@]43C)cc2)cc1" show?
Result string: 1.5

Query string: Request the reported RBA associated with "C[C@]12CC[C@@H]3c4ccc(O)cc4CC[C@H]3[C@@H]1CC[C@@]2(O)C#Cc1ccc(OCCCOCCCOCCCOCCCOCCCOCCCOc2ccc(C#C[C@]3(O)CC[C@H]4[C@@H]5CCc6cc(O)ccc6[C@H]5CC[C@@]43C)cc2)cc1"
Result string: 0.38

----------
Consider the following compounds; for each one, report its RBA.
# Experimental target: Estrogen receptor beta (Homo sapiens)
# Procedure summary: Displacement of [3H]estradiol from full-length human estrogen receptor beta by radiometric assay relative to estradiol
Give the value, in units of %, as a plain number.

Query string: Requested field: RBA. Item: "C[C@]12CC[C@@H]3c4ccc(O)cc4CC[C@H]3[C@@H]1CC[C@@]2(O)C#Cc1ccc(OCCCCOCCCCOCCCCOCCCCOc2ccc(C#C[C@]3(O)CC[C@H]4[C@@H]5CCc6cc(O)ccc6[C@H]5CC[C@@]43C)cc2)cc1"
Result string: 0.76

Query string: State the recorded RBA for this entry: "C[C@]12CC[C@@H]3c4ccc(O)cc4CC[C@H]3[C@@H]1CC[C@@]2(O)C#Cc1ccc(OCCCCOCCCCOCCCCOCCCCOCCCOc2ccc(C#C[C@]3(O)CC[C@H]4[C@@H]5CCc6cc(O)ccc6[C@H]5CC[C@@]43C)cc2)cc1"
Result string: 0.22

Query string: Consider the compound shown here: "C[C@]12CC[C@@H]3c4ccc(O)cc4CC[C@H]3[C@@H]1CC[C@@]2(O)C#Cc1ccc(CNCCOCCOCCOCCOCCOCCNCc2ccc(C#C[C@]3(O)CC[C@H]4[C@@H]5CCc6cc(O)ccc6[C@H]5CC[C@@]43C)cc2)cc1" What is its recorded RBA?
Result string: 3.6

Query string: Look at this compound and give its reported RBA. "C[C@]12CC[C@@H]3c4ccc(O)cc4CC[C@H]3[C@@H]1CC[C@@]2(O)C#Cc1ccc(OCCCCOCCCCOc2ccc(C#C[C@]3(O)CC[C@H]4[C@@H]5CCc6cc(O)ccc6[C@H]5CC[C@@]43C)cc2)cc1"
Result string: 0.82

----------
Assignment: determine reported RBA for the given compounds.
# Experimental target: Estrogen receptor beta (Homo sapiens)
# Procedure summary: Displacement of [3H]estradiol from full-length human estrogen receptor beta by radiometric assay relative to estradiol
Expressed in %, but write only the number.

Query string: Quick check: RBA on Estrogen receptor beta (Homo sapiens), item "C[C@]12CC[C@@H]3c4ccc(O)cc4CC[C@H]3[C@@H]1CC[C@@]2(O)C#Cc1ccc(OCCCOCCCOc2ccc(C#C[C@]3(O)CC[C@H]4[C@@H]5CCc6cc(O)ccc6[C@H]5CC[C@@]43C)cc2)cc1" ?
Result string: 0.38

Query string: Please tell me: RBA of "C[C@]12CC[C@@H]3c4ccc(O)cc4CC[C@H]3[C@@H]1CC[C@@]2(O)C#Cc1ccc(OCCCOCCCOCCCOCCCOc2ccc(C#C[C@]3(O)CC[C@H]4[C@@H]5CCc6cc(O)ccc6[C@H]5CC[C@@]43C)cc2)cc1" , system Estrogen receptor beta (Homo sapiens)?
Result string: 0.003

Query string: Provide the documented RBA with Estrogen receptor beta (Homo sapiens) as the system for "C[C@]12CC[C@@H]3c4ccc(O)cc4CC[C@H]3[C@@H]1CC[C@@]2(O)C#Cc1ccc(OCCCOCCCOCCCOc2ccc(C#C[C@]3(O)CC[C@H]4[C@@H]5CCc6cc(O)ccc6[C@H]5CC[C@@]43C)cc2)cc1"
Result string: 0.53
